Assay: Inhibition of rabbit skeletal muscle myosin-2 ATPase incubated for 20 mins followed by ATP addition and measured after 20 mins
PROPERTY NAME: pIC50
Note: pIC50 values are expressed as the negative base-10 logarithm of concentration in M.

Exercise: Request the reported pIC50 associated with "Oc1c(Br)cc(Br)cc1-c1[nH]c(Br)c(Br)c1Br"
Solution: 5.29
